TARGET_OF_ASSAY: T1, Extracellular domain of cyno PD1 (cPD1-ECD) (Macaca fascicularis (cynomolgus))
T1 construct: Expressed with a hexahistidine tag or as Fc fusion; also called cynoPD1-ECD; cynoPD-1-ECD
T1 chain: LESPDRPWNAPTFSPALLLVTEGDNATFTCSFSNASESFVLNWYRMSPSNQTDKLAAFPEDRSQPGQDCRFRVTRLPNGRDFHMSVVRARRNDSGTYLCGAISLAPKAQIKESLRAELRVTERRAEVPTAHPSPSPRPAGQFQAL
ASSAY_PROCEDURE: SPR ProteOn, captured mAb, cynoPD1-ECD analyte;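 also: ProteOn XPR36 SPR with antibodies held by anti-IgG Fc on a GLC chip, on-rate, off-rate and KD derived from a Langmuir one-to-one fit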
kon overview
Respond with the bare value in M⁻¹ s⁻¹.

[
  {
    "BINDER": "PD1B160 (antibody, human IgG2, kappa, V domains shown, IgG2sigma/kappa; VH 42, VL 51; also called PD1H131/PD1L101) VH: QVQLVQSGAEVKKPGSSVKVSCKASGGTFSSYAISWVRQAPGQGLEWMGGIIPIFDTANYAQKFQGRVTITADESTSTAYMELSSLRSEDTAVYYCARPGLAAAYDTGNLDYWGQGTLVTVSS VL: EIVLTQSPATLSLSPGERATLSCRASQSVDSYLAWYQQKPGQAPRLLIKDASDRATGIPARFSGSGSGTDFTLTISSLEPEDFAVYYCQQRGNWPLTFGQGTKVEIKR",
    "OUTPUT_UNIT": "M⁻¹ s⁻¹",
    "kon": 317000
  }
]

Challenge: Give the measured kon for PD1B162 (antibody, human IgG2, kappa, V domains shown, IgG2sigma/kappa; VH 42, VL 52; also called PD1H131/PD1L67) VH: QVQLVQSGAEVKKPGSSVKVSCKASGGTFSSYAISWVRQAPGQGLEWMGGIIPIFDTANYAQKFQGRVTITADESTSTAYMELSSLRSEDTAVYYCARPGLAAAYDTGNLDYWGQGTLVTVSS VL: EIVLTQSPATLSLSPGERATLSCRASQSVDSYLAWYQQKPGQAPRLLIYDASNRATGIPARFSGSGSGTDFTLTISSLEPEDFAVYYCQQREYWPLTFGQGTKVEIKR
Response given: 387000
